Values were extracted from patent US20220025029A1.

Target Or Test System: T1, natural Fel d1 (Indoor Biotech, #NA-FD1-2) (cat, UniProt P30438 23-92; P30440 18-109)
T1 construct: Bought natural heterodimeric glycoprotein, chains linked by disulfide bonds; also called nFel d1; nFel d 1
T1 sequence (P30438 other isoform, or with tags, fused parts or gaps, chain 1 of 2): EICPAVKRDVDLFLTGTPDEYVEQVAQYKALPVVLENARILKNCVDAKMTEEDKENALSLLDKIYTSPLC
T1 sequence (P30440 18-109, chain 2 of 2): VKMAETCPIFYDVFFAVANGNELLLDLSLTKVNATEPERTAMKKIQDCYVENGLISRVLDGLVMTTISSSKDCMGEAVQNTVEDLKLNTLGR
Test Protocol: Octet BLI sandwich; nFel d1 pre-complexed with captured mAb-1 H4H2597P (competitor); self-competition value subtracted
Property Measured: Response of mAb-2 Binding to nFel d1 pre-complexed with mAb-1 (nm)
Report the value in nm with no unit label.

Give the reported Response of mAb-2 Binding to nFel d1 pre-complexed with mAb-1 for this binder. H4H2864P (antibody, human IgG4, V domains shown, human IgG4 Fc (H4H prefix)) VH: EVQLVESGGGLAQPGGSLRLSCAASGFTFNNYAMTWVRQAPGKGLDWVSAISDSGRSTFSADSVKGRFTISRDNSKNTLYLQMDSLRAEDTALYYCAKHRNWNYPVFDYWGQGTLVTVSS VL: DIQLTQSPSFLSASVGDRVTITCWASQGISSYLAWYQQKPGKAPKLLIYSASTLQSGVPSRFSGSGSGTEFTLTISSLQPEDFATYYCQQLNSYPFTFGPGTKVDIK
0.54
